experiment: Selectivity index, ratio of IC50 for human HeLa cells to IC50 for chloroquine-sensitive asexual intraerythrocytic stage of Plasmodium falciparum NF54; format: toxicity, cell-based; conditions: read-out: Ratio IC50
Entries annotated with measured selectivity ratio

>  <INPUT SMILES>
CSc1nc(-c2ccc([N+](=O)[O-])cc2)c(C#N)c(N2CCN(c3ccnc4cc(Cl)ccc34)CC2)n1

>  <selectivity ratio>
18.6

$$$$
>  <INPUT SMILES>
COc1cc(-c2nc(SC)nc(NCCCCNc3ccnc4cc(Cl)ccc34)c2C#N)cc(OC)c1OC

>  <selectivity ratio>
37.4

$$$$
>  <INPUT SMILES>
CSc1nc(NCCCNc2ccnc3cc(Cl)ccc23)c(C#N)c(-c2ccccc2)n1

>  <selectivity ratio>
82.3

$$$$

---

test: Cytotoxicity against MDCK cells assessed as inhibition of cell viability by colorimetric formazan-based MTS assay; parameters: species or system Canis lupus familiaris; conditions: dog
# CC50 annotations
QUANTITY: CC50

>  <COMPOUND>
CSc1nc(NCCCCNc2ccnc3cc(Cl)ccc23)c(C#N)c(-c2ccccc2)n1

>  <DATA VALUE>
10.7 µM

$$$$
>  <COMPOUND>
CSc1nc(NCCCCNc2ccnc3cc(Cl)ccc23)c(C#N)c(-c2ccc(C)cc2)n1

>  <DATA VALUE>
9.9 µM

$$$$
>  <COMPOUND>
NC(=O)c1ncn([C@@H]2O[C@H](CO)[C@@H](O)[C@H]2O)n1 [RIBAVIRIN]

>  <DATA VALUE>
100 µM

$$$$
>  <COMPOUND>
CSc1nc(NCCCCNc2ccnc3cc(Cl)ccc23)c(C#N)c(-c2ccc([N+](=O)[O-])cc2)n1

>  <DATA VALUE>
2 µM

$$$$

---

test: Cytotoxicity against MDCK cells assessed as inhibition of cell viability by colorimetric formazan-based MTS assay; design: species or system Canis lupus familiaris; conditions: dog
QUANTITY: CC50 (µM)

>  <MOLECULE>
COc1ccc(-c2nc(SC)nc(NCCCCNc3ccnc4cc(Cl)ccc34)c2C#N)cc1

>  <QUANTITY>
CC50

>  <COMPARISON SYMBOL>
=

>  <DATA VALUE>
10

$$$$
>  <MOLECULE>
COc1cc(-c2nc(SC)nc(NCCCCNc3ccnc4cc(Cl)ccc34)c2C#N)cc(OC)c1OC

>  <QUANTITY>
CC50

>  <COMPARISON SYMBOL>
=

>  <DATA VALUE>
2

$$$$
>  <MOLECULE>
CCN(CC)CCCC(C)Nc1ccnc2cc(Cl)ccc12 (stereo not given)

>  <QUANTITY>
CC50

>  <COMPARISON SYMBOL>
=

>  <DATA VALUE>
55.6

$$$$
>  <MOLECULE>
COc1ccc(-c2nc(SC)nc(NCCCCNc3ccnc4cc(Cl)ccc34)c2C#N)cc1OC

>  <QUANTITY>
CC50

>  <COMPARISON SYMBOL>
=

>  <DATA VALUE>
10

$$$$
>  <MOLECULE>
CSc1nc(-c2ccc([N+](=O)[O-])cc2)c(C#N)c(N2CCN(c3ccnc4cc(Cl)ccc34)CC2)n1

>  <QUANTITY>
CC50

>  <COMPARISON SYMBOL>
>

>  <DATA VALUE>
100

$$$$

---

assay: Cytotoxicity against african green monkey Vero cells assessed as alteration of normal cell morphology by microscopic analysis; type: cell-based; details: chlorocebus sabaeus
QUANTITY: MCC

>  <COMPOUND>
CSc1nc(OCCCNc2ccnc3cc(Cl)ccc23)c(C#N)c(-c2ccccc2)n1

>  <DATA VALUE>
4 µM

$$$$
>  <COMPOUND>
N#Cc1c(NCCCCNc2ccnc3cc(Cl)ccc23)nc(N2CCOCC2)nc1-c1ccccc1

>  <DATA VALUE>
20 µM

$$$$
>  <COMPOUND>
CSc1nc(NCCCCNc2ccnc3cc(Cl)ccc23)c(C#N)c(-c2cccc([N+](=O)[O-])c2)n1

>  <DATA VALUE>
20 µM

$$$$
>  <COMPOUND>
CSc1nc(NCCCCNc2ccnc3cc(Cl)ccc23)c(C#N)c(-c2ccc(C)cc2)n1

>  <DATA VALUE>
20 µM

$$$$
>  <COMPOUND>
COc1ccc(-c2nc(SC)nc(NCCCCNc3ccnc4cc(Cl)ccc34)c2C#N)cc1OC

>  <DATA VALUE>
> 100 µM

$$$$
>  <COMPOUND>
CSc1nc(NCCCCNc2ccnc3cc(Cl)ccc23)c(C#N)c(-c2ccc([N+](=O)[O-])cc2)n1

>  <DATA VALUE>
4 µM

$$$$
>  <COMPOUND>
COc1ccc(-c2nc(SC)nc(NCCCCNc3ccnc4cc(Cl)ccc34)c2C#N)cc1

>  <DATA VALUE>
20 µM

$$$$
>  <COMPOUND>
CSc1nc(-c2ccccc2)c(C#N)c(N2CCN(c3ccnc4cc(Cl)ccc34)CC2)n1

>  <DATA VALUE>
> 100 µM

$$$$
>  <COMPOUND>
CCN(CC)CCCC(C)Nc1ccnc2cc(Cl)ccc12 (centres undefined)

>  <DATA VALUE>
> 100 µM

$$$$

---

Reported CC50 by item:
experiment: Cytotoxicity against human HEL cells assessed as inhibition of cell viability by colorimetric formazan-based MTS assay

>  <INPUT SMILES>
CSc1nc(NCCCCNc2ccnc3cc(Cl)ccc23)c(C#N)c(-c2ccc(C)cc2)n1

>  <COMPARISON SYMBOL>
=

>  <CC50, nM>
8200

$$$$
>  <INPUT SMILES>
CSc1nc(-c2ccc([N+](=O)[O-])cc2)c(C#N)c(N2CCN(c3ccnc4cc(Cl)ccc34)CC2)n1

>  <COMPARISON SYMBOL>
>

>  <CC50, nM>
100000

$$$$
>  <INPUT SMILES>
CSc1nc(OCCCNc2ccnc3cc(Cl)ccc23)c(C#N)c(-c2ccccc2)n1

>  <COMPARISON SYMBOL>
=

>  <CC50, nM>
1700

$$$$
>  <INPUT SMILES>
COc1cc(-c2nc(SC)nc(NCCCCNc3ccnc4cc(Cl)ccc34)c2C#N)cc(OC)c1OC

>  <COMPARISON SYMBOL>
=

>  <CC50, nM>
1500

$$$$

---

# key: entry, value: selectivity ratio
assay: Selectivity index, ratio of IC50 for human HeLa cells to IC50 for chloroquine-sensitive asexual intraerythrocytic stage of Plasmodium falciparum NF54; assay type: toxicity, cell-based; details: read-out: Ratio IC50

>  <INPUT SMILES>
CSc1nc(NCCCCNc2ccnc3cc(Cl)ccc23)c(C#N)c(-c2ccc([N+](=O)[O-])cc2)n1

>  <selectivity ratio>
20.3

$$$$
>  <INPUT SMILES>
CSc1nc(NCCCCNc2ccnc3cc(Cl)ccc23)c(C#N)c(-c2cccc([N+](=O)[O-])c2)n1

>  <selectivity ratio>
16

$$$$
>  <INPUT SMILES>
CSc1nc(NCCCCNc2ccnc3cc(Cl)ccc23)c(C#N)c(-c2ccc(C)cc2)n1

>  <selectivity ratio>
41.9

$$$$
>  <INPUT SMILES>
CSc1nc(-c2ccccc2)c(C#N)c(N2CCN(c3ccnc4cc(Cl)ccc34)CC2)n1

>  <selectivity ratio>
> 1.9

$$$$
>  <INPUT SMILES>
CSc1nc(NCCCCNc2ccnc3cc(Cl)ccc23)c(C#N)c(-c2ccccc2)n1

>  <selectivity ratio>
78.3

$$$$
>  <INPUT SMILES>
COc1ccc(-c2nc(SC)nc(NCCCCNc3ccnc4cc(Cl)ccc34)c2C#N)cc1OC

>  <selectivity ratio>
104

$$$$
>  <INPUT SMILES>
N#Cc1c(NCCCCNc2ccnc3cc(Cl)ccc23)nc(N2CCOCC2)nc1-c1ccccc1

>  <selectivity ratio>
86.3

$$$$
>  <INPUT SMILES>
CSc1nc(OCCCNc2ccnc3cc(Cl)ccc23)c(C#N)c(-c2ccccc2)n1

>  <selectivity ratio>
38.3

$$$$
>  <INPUT SMILES>
COc1ccc(-c2nc(SC)nc(NCCCCNc3ccnc4cc(Cl)ccc34)c2C#N)cc1

>  <selectivity ratio>
30.9

$$$$

---

experiment: Cytotoxicity against human HEL cells assessed as alteration of normal cell morphology by microscopic analysis; type: cell-based

>  <INPUT SMILES>
CSc1nc(NCCCNc2ccnc3cc(Cl)ccc23)c(C#N)c(-c2ccccc2)n1

>  <RESULT UNITS>
µM

>  <COMPARISON SYMBOL>
=

>  <MCC>
20

$$$$
>  <INPUT SMILES>
N#Cc1c(NCCCCNc2ccnc3cc(Cl)ccc23)nc(N2CCOCC2)nc1-c1ccccc1

>  <RESULT UNITS>
µM

>  <COMPARISON SYMBOL>
=

>  <MCC>
20

$$$$
>  <INPUT SMILES>
CSc1nc(OCCCNc2ccnc3cc(Cl)ccc23)c(C#N)c(-c2ccccc2)n1

>  <RESULT UNITS>
µM

>  <COMPARISON SYMBOL>
=

>  <MCC>
4

$$$$
>  <INPUT SMILES>
CSc1nc(NCCCCNc2ccnc3cc(Cl)ccc23)c(C#N)c(-c2cccc([N+](=O)[O-])c2)n1

>  <RESULT UNITS>
µM

>  <COMPARISON SYMBOL>
≥

>  <MCC>
4

$$$$
>  <INPUT SMILES>
COc1ccc(-c2nc(SC)nc(NCCCCNc3ccnc4cc(Cl)ccc34)c2C#N)cc1OC

>  <RESULT UNITS>
µM

>  <COMPARISON SYMBOL>
≥

>  <MCC>
100

$$$$
>  <INPUT SMILES>
CSc1nc(NCCCCNc2ccnc3cc(Cl)ccc23)c(C#N)c(-c2ccc([N+](=O)[O-])cc2)n1

>  <RESULT UNITS>
µM

>  <COMPARISON SYMBOL>
=

>  <MCC>
4

$$$$

Entry source: ChEMBL document CHEMBL4000146
